Attribution: PubChem BioAssay

- assay-info: viability loss with induced miR-34 in A549 – imaging, A549 dox-inducible miR-34, nuclei and caspase counts, primary screen (AID 1347080); further: test concentration not given here
- assay-setup: A549 miR-34 inducible, Hoechst nuclei count, 48 h; hits give low values; cell number ratio, induced over uninduced
Response field label takes 1 when fold change is strictly below 0.9 and 0 in all other cases.

INSERT INTO assay_data (compound, category_label) VALUES
  ('COc1cc2c(cc1O)CC[C@@H]1[C@H]2CC[C@]2(C)C(O)CC[C@@H]12 (some centres not stated)', 0),
  ('CCCC[C@@]1(C2CCCC2)Cc2cc(OCC(=O)O)c(Cl)c(Cl)c2C1=O', 0),
  ('CC(C)n1cc(-c2cc(C(=O)N(C)Cc3cccnc3)c3cc(F)ccc3n2)cn1', 1);

**Q:** Determine if CN1CCCC1Cc1c[nH]c2ccc(CCS(=O)(=O)c3ccccc3)cc12 (configuration not stated) shows fold change strictly lower than 0.9.
**A:** 0

**Q:** Let us now turn to CCCCCCCCCC(=O)N[C@H](CN1CCOCC1)[C@H](O)c1ccccc1
**A:** 0

**Q:** Let us now turn to COc1cccc(OC)c1OCCNCC1CSc2ccccc2O1 (configuration not stated)
**A:** 0

**Q:** Let us now turn to C=CC(=O)N1CCCC(n2nc(-c3ccc(Oc4ccccc4)cc3)c3c(N)ncnc32)C1 (configuration not stated)
**A:** 1

**Q:** Let us now turn to NCc1c[nH]c(=S)n1C1CCc2c(F)cc(F)cc2C1 (configuration not stated)
**A:** 1

**Q:** Let us now turn to CCn1ncc(NC(=O)Cn2nc(C)c(-c3ccc(-n4cccn4)cc3)c2C)n1
**A:** 1

**Q:** Let us now turn to CC=C1NC(=O)C2CSSCCC=CC(CC(=O)NC(C(C)C)C(=O)N2)OC(=O)C(C(C)C)NC1=O (configuration not stated)
**A:** 1

**Q:** Let us now turn to O=C(O)/C=C/c1cnc[nH]1
**A:** 0
